- target-entity: T1, hAMY3R (human, UniProt P30988)
- T1 sequence 1: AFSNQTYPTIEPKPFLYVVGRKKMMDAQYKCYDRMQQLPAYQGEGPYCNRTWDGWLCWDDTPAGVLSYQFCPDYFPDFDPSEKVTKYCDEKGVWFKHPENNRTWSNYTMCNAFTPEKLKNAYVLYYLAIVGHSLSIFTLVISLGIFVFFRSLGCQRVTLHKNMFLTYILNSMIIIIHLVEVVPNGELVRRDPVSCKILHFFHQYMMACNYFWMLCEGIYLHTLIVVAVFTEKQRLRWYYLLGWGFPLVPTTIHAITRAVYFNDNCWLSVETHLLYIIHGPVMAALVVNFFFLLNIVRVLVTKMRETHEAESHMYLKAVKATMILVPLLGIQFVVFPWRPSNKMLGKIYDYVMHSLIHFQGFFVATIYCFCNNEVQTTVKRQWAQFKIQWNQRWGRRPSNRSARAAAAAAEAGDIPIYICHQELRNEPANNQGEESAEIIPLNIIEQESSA
- T1 sequence 2: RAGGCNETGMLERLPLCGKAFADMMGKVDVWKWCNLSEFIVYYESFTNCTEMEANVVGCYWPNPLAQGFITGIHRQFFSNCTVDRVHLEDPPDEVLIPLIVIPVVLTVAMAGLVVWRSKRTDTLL
- procedure-details: cell-based or functional assay
Numbered stars: 1 amine (or outer) side, 2 acyl side, 3 side chain; on linkers, the order of the positions; unused ones are H or OH. Bridge positions count the residues as written; N and C are the ends. Square brackets hold non-standard residues; d marks the D form. Ends that are not written are not given here. * marks the point of attachment. C20 diacid = O=C(O)CCCCCCCCCCCCCCCCCCC(=O)*; γGlu = O=C(O)[C@H](CCC(=O)[*:2])N[*:1]; Hyp = O=C(O)[C@@H]1C[C@@H](O)CN1; Cit = NC(=O)NCCC[C@H](N)C(=O)O
reported-endpoint: hAMY3R EC50 (cAMP)
Form entry: enter the amount, then its unit.

Known results for binders:
- binder: "GCRTGTCTVQ[Cit]LAHQIYQFTDKDKDNVAPRTKVGPQG[Hyp]-NH2 (disulfide 2-7 (inferred); ends not checked) [SEQ ID NO: 292]"
  hAMY3R EC50 (cAMP): "0.07 nM"
- binder: "GCRFGTCTVQ[Cit]LAHQIYQFTDKDKDNVAPRTNISPQG[Hyp]-NH2 (disulfide 2-7 (inferred); ends not checked) [SEQ ID NO: 291]"
  hAMY3R EC50 (cAMP): "0.064 nM"
- binder: "GCRTGTCTVQRLAHQIYQFTDKDKDNVAPRSNVSPNGY [SEQ ID NO: 172]"
  hAMY3R EC50 (cAMP): "0.066 nM"
- binder: "GCRTGTCTVQRLAHQIYQFTDKDKDNVAPRTNVSPQGY [SEQ ID NO: 176]"
  hAMY3R EC50 (cAMP): "0.076 nM"
- binder: "GCRFGTCTVQRLAHQIYQFTDKDKDNVAPRSNVGPQG[Hyp]-NH2 (disulfide 2-7 (inferred); ends not checked) [SEQ ID NO: 135]"
  hAMY3R EC50 (cAMP): "0.033 nM"

Provide the reported hAMY3R EC50 (cAMP) of each entry below, same order.
1. {C20 diacid-γGlu}-KCNTYTCTVQRLAHQIYQFTDKDKDNVAPPTNVGSNG[Hyp]-NH2 (disulfide 2-7 (inferred); ends not checked) [SEQ ID NO: 231]
2. KCNTATCTVQWLAHQIAQFTDKDKDNVAPPTNVGSNG[Hyp]-NH2 (disulfide 2-7 (inferred); ends not checked) [SEQ ID NO: 309]
3. {C20 diacid-γGlu}-KCNTATCTVQRLAHQIAQFSDKDKDNVAPPTNVGSNG[Hyp]-NH2 (disulfide 2-7 (inferred); not fully specified; ends not checked) [SEQ ID NO: 79]
4. GCRFGTCTVQRLAHQIYQFTDKDKDNVAPRSKISPQG[Hyp]-NH2 (disulfide 2-7 (inferred); ends not checked) [SEQ ID NO: 169]
5. GCRFGTCTVQ[Cit]LAHFLYQFTDKDKDNVAPRTNVGSNTY-NH2 (disulfide 2-7 (inferred); ends not checked) [SEQ ID NO: 264]

["0.209 nM", "0.025 nM", "0.014 nM", "0.063 nM", "0.006 nM"]

Respectfully, I request hAMY3R EC50 (cAMP) for each entry included below.
1. {C20 diacid-γGlu}-KCNTLTCTVQRLAHQIYQFTDKDKDNVAPPTNVGSNG[Hyp]-NH2 (disulfide 2-7 (inferred); ends not checked) [SEQ ID NO: 225]
2. GCRFGTCTVQRLAHQIYQFTDKDKDNVAPRSKVGPQG[Hyp]-NH2 (disulfide 2-7 (inferred); ends not checked) [SEQ ID NO: 152]
3. GCRTGTCTVQRLAHQIYQFTDKDKDNVAPRSNVSPQG[Hyp]-NH2 (disulfide 2-7 (inferred); ends not checked) [SEQ ID NO: 224]
4. GCRTGTCTVQRLAHQIYQFTDKDKDNVAPRTKVSPQGY [SEQ ID NO: 209]
5. GCRFGTCTVQWLAHFLYQFTDKDKDNVAPRTNVGSNTY [SEQ ID NO: 327]

1: 0.186 nM; 2: 0.041 nM; 3: 0.186 nM; 4: 0.136 nM; 5: 0.09 nM

Give hAMY3R EC50 (cAMP) for each listed item.
1. GCRFGTCTVQRLAHFLYQFTDKDKDNVAPRTKIGSNGY [SEQ ID NO: 376]
2. GCRTGTCTVQRLAHQIYQFTDKDKDNVAPRTKISPQG[Hyp]-NH2 (disulfide 2-7 (inferred); ends not checked) [SEQ ID NO: 189]

0.022 nM
0.096 nM

Consider the following items and state reported hAMY3R EC50 (cAMP) for each.
1. GCRTGTCTVQRLAHQIYQFTNKDKDNVAPRSKISPQTR [SEQ ID NO: 242]
2. KCNTATCATQRLANFLVQFTDKDKDNVAPRSKISPQGY [SEQ ID NO: 234]

1: 0.248 nM; 2: 0.227 nM

Numbers sourced from patent US12139520B2.
